PROTOCOL DESCRIPTION: chemical genetic growth profiling, strain panel (AID 1159580);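 note: tested at 20 µM; growth read once vehicle control cultures reached saturation at 30 °C; 1 = growth at the plate median or of vehicle wells; lower values mean less growth of the strain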
EXPERIMENTAL CONDITIONS: S. cerevisiae deletion strains, growth OD, locus YDR363W, strain ESC2, stronger effect = lower value
About 2,000 (36%) of roughly 5,500 compounds were called active. Another 18% or so got no clear call; they are omitted. This is one part of the list.
READOUT LABEL: normalized growth
Give only the figure.

Below, 3 molecules whose answers are already recorded.
NNCCc1ccccc1 | 1.06
CN1CCN(c2ccc3ccccc3n2)CC1 | 0.982
Nc1ccncc1 | 1.01

Data request: Can you look up the measured normalized growth of CSc1ccc2c(c1)N(CCC1CCCCN1C)c1ccccc1S2 (stereo not given) for me?
Data returned: 0.894

Data request: Can you look up the measured normalized growth of NC(N)=NC(=O)Cc1c(Cl)cccc1Cl for me?
Data returned: 0.997

###

normalized growth values by entry
PROTOCOL DESCRIPTION: chemical genetic growth profiling, strain panel (AID 1159580);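 note: tested at 20 µM; growth read once vehicle control cultures reached saturation at 30 °C; 1 = growth at the plate median or of vehicle wells; lower values mean less growth of the strain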
EXPERIMENTAL CONDITIONS: S. cerevisiae deletion strains, growth OD, locus YKL068W, stronger effect = lower value
The campaign covered roughly 5,500 compounds. About 2,000 (36%) were called active. Not shown: some 18% with an inconclusive outcome. Some of the results follow.
Give only the figure.

CC1(C)C(=O)C=C[C@@]2(C)C1CC(=O)[C@@]1(C)C3=CC(=O)O[C@@H](c4ccoc4)[C@]3(C)CCC12 (some centres undefined) | 1
CN[C@@H]1[C@H](OC2[C@H](O[C@H]3[C@H](O)[C@@H](O)[C@H](N=C(N)N)[C@@H](O)[C@@H]3N=C(N)N)O[C@@H](C)[C@]2(O)C=O)O[C@@H](CO)[C@H](O)[C@H]1O (some centres undefined) | 1
Cc1cc(O)c(C)c2c1C(=O)Oc1c(C)c(O)c(C(=O)O)c(C)c1O2 | 0.985
CC(=O)Nc1ccccc1 | 0.99
N[C@@H]1[C@@H](O)[C@H](O)[C@@H](CO)O[C@H]1O | 1

# next compound below
Data request: Can you look up the measured normalized growth of O=C(Nc1ccccc1)Nc1ccccc1 for me?
Data returned: 0.975

###

PROTOCOL DESCRIPTION: chemical genetic growth profiling, strain panel (AID 1159580);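 note: tested at 20 µM; growth read once vehicle control cultures reached saturation at 30 °C; 1 = growth at the plate median or of vehicle wells; lower values mean less growth of the strain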
EXPERIMENTAL CONDITIONS: S. cerevisiae deletion strains, growth OD, locus YCL011C, strain gbp2, stronger effect = lower value
About 2,000 (36%) of roughly 5,500 compounds were called active. Another 18% or so got no clear call; they are omitted. The list shows a part of the results.
READOUT LABEL: normalized growth
Give only the figure.

Below, 3 compounds whose answers are already recorded.
CC(CCC(=O)O)[C@H]1CCC2C3CC[C@@H]4C[C@H](O)CC[C@]4(C)C3C[C@H](O)[C@@]21C (some centres undefined) | 0.974
COC(=O)CCC(C)C1CCC2C3CC[C@@H]4C[C@H](O)CC[C@]4(C)C3C[C@H](O)[C@]12C (some centres undefined) | 0.966
CC(CCC(=O)O)[C@H]1CCC2C3C(C[C@H](O)[C@@]21C)[C@@]1(C)CC[C@@H](O)C[C@H]1C[C@H]3O (some centres undefined) | 1.02

Data request: Can you look up the measured normalized growth of CCN(CC)C(C)CN1c2ccccc2Sc2ccccc21 (centres undefined) for me?
Data returned: 0.953

Data request: Can you look up the measured normalized growth of CNCCCN1c2ccccc2CCc2ccccc21 for me?
Data returned: 0.994

Data request: Can you look up the measured normalized growth of CC[C@H](CCC(C)[C@H]1CCC2C3CCC4C[C@@H](O)CC[C@]4(C)C3CC[C@@]21C)C(C)C (some centres undefined) for me?
Data returned: 0.986

Data request: Can you look up the measured normalized growth of CC(CCC(=O)O)[C@H]1CCC2C3C[C@H](O)[C@@H]4C[C@H](O)CC[C@]4(C)C3CC[C@@]21C (some centres undefined) for me?
Data returned: 0.97

Data request: Can you look up the measured normalized growth of CC(CN(C)C)CN1c2ccccc2Sc2ccccc21 (centres undefined) for me?
Data returned: 1.02

Data request: Can you look up the measured normalized growth of CC(CN(C)C)CN1c2ccccc2CCc2ccccc21 (centres undefined) for me?
Data returned: 0.973

Value source: PubChem BioAssay AID1159580
